We begin with a simple list: items and their reported Minimal inhibitory concentrations (MIC90) MG1655.
# System: E. coli MG1655
# Assay type: cell-based, Escherichia coli
# Set-up: unit not given here
# Run Conditions: Table 13, MHB medium
Assay Endpoint: Minimal inhibitory concentrations (MIC90) MG1655

[
  {
    "Smiles Text": "CO[C@H]1[C@H](OC(=O)c2ccc(C)[nH]2)[C@H](O)[C@@H](Oc2ccc3c(O)c(NC(=O)c4c[nH]c(C(=O)Nc5c(O)c6ccc(O[C@H]7OC(C)(C)[C@@H](OC)[C@H](OC(=O)c8ccc(C)[nH]8)[C@@H]7O)c(C)c6oc5=O)c4C)c(=O)oc3c2C)OC1(C)C",
    "Reported Value": ">64"
  },
  {
    "Smiles Text": "COc1cccc2c1C(=O)c1c(O)c3c(c(O)c1C2=O)C[C@@](O)(C(C)=O)C[C@@H]3O[C@H]1C[C@H](N)[C@H](O)[C@H](C)O1",
    "Reported Value": ">256"
  },
  {
    "Smiles Text": "CC[C@H]1OC(=O)[C@H](C)[C@@H](O[C@H]2C[C@@](C)(OC)[C@@H](O)[C@H](C)O2)[C@H](C)[C@@H](O[C@@H]2O[C@H](C)C[C@H](N(C)C)[C@H]2O)[C@](C)(O)C[C@@H](C)C(=O)[C@H](C)[C@@H](O)[C@]1(C)O",
    "Reported Value": ">64"
  }
]
